The following compounds are listed with their measured growth values.
# System: MALME-3M melanoma
# protocolNotes: NCI-60 one-dose screen, 48 h (100 = growth as untreated, 0 = no growth, -100 = all killed)
# measurementSetup: 10 µM unless noted
About 83,000 compounds went through this panel and 20% of them were active in at least one assay; those are over-represented in the sample as a whole.
attributeMeasured: growth (%)

compound	measuredTarget	outputUnit	readoutValue
O=C(O)c1cn(C2CC2)c2cc(N3CCN(S(=O)(=O)c4ccc(Cl)c(Cl)c4)CC3)c(F)cc2c1=O	MALME-3M melanoma	%	-1.09
CC(=O)C1CCC(C)=CC1=O (stereo not given)	MALME-3M melanoma	%	93.4
COc1ccc(-c2nnc(COc3ccc(NC(=O)Nc4ccc(Cl)c(C(F)(F)F)c4)cc3F)o2)cc1	MALME-3M melanoma	%	-1.11
COc1ccc(C2CC(=O)Nc3c2c(C)nn3-c2nc3ccccc3[nH]2)cc1OC (stereo not given)	MALME-3M melanoma	%	38.5
CCCn1c(=S)sc2c(Cl)nc(C)nc21	MALME-3M melanoma	%	104
Cc1ccc(S(=O)(=O)NCCCNc2nccc(-c3c(-c4ccccc4)nc4sccn34)n2)cc1	MALME-3M melanoma	%	99.3
Cc1ccc2c(c1)ncn2-c1ncnc2c1CC(C)c1ccccc1N2C (stereo not given)	MALME-3M melanoma	%	49.3
COc1ccc(/C=c2\sc3n(c2=O)C2C(NN=3)N(C)C(=O)N2C)cc1 (stereo not given)	MALME-3M melanoma	%	25
CN(C)C/C=C/C(=O)Nc1cc2c(Nc3cccc(Cl)c3F)ncnc2cc1OCCOC(F)F	MALME-3M melanoma	%	38.5
Nc1c(C(=O)Nc2c(Cl)cccc2Cl)sc2nc3c(cc12)CCCCC3	MALME-3M melanoma	%	61.5

---

# System: HS 578T breast
# protocolNotes: NCI-60 one-dose screen, 48 h
# measurementSetup: 10 µM unless noted
The panel holds about 83,000 compounds, 20% with a hit somewhere; the sample as a whole holds those more often. The source made the active and inactive calls. The calls were made as follows: active = growth percent below 10; inactive = the rest.
Outcome codes: y = active, n = inactive

compound	measuredTarget	labelValue
COc1ccc(/C(=N/O)c2cc(OC)c(OC)c(OC)c2)c(OC)c1N	HS 578T breast	y
Cc1cccc(-n2c(C)nc3ccc(NC(=O)NCCCl)cc3c2=O)c1	HS 578T breast	n
CCSc1nnc(NC(=O)Cc2ccc(Cl)cc2)s1	HS 578T breast	n
COc1cc(-c2csc(NC(=O)c3cc(C(F)(F)F)cc(C(F)(F)F)c3)n2)cc(OC)c1OC	HS 578T breast	n
CC(Cc1nnc(SCC(=O)Nc2ccc(I)cc2)n1N)c1ccccc1 (stereo not given)	HS 578T breast	n
Cn1c(=O)c2c(nc3n2CCN(CCc2ccc(OCCN4CCOCC4)cc2)C3)n(C)c1=O	HS 578T breast	n
CCCCCc1c(C)[nH]c(/C=c2\[nH]/c(=C3/C=c4ccccc4=N3)cc2OC)c1C	HS 578T breast	y
CNC(=O)Cc1nc(-c2cccc(NS(=O)(=O)c3c(F)cccc3F)c2F)c(-c2ccnc(Nc3ccccc3)n2)s1	HS 578T breast	n
O=C1Nc2ccc(Br)cc2C1=N/C=c1\[nH]c(=O)/c(=C/c2ccc(Cl)cc2)s1	HS 578T breast	n
Nc1nc(Cl)c2c(ncn2Cc2ccc(CCl)cc2)n1	HS 578T breast	n

---

# Tested on: COLO 205 colon
# protocolNotes: NCI-60 one-dose screen, 48 h (100 = growth as untreated, 0 = no growth, -100 = all killed)
# measurementSetup: 10 µM unless noted
About 83,000 compounds went through this panel and 20% of them were active in at least one assay; those are over-represented in the sample as a whole. Activity calls are given as the source filed them. Rule for the calls: active = growth percent below 10; inactive = the rest.
The following molecules are listed with their measured growth values.

structureNotation	growth
COc1ccc(-c2nc3sccn3c2-c2ccnc(NCCCNS(=O)(=O)c3ccc(F)cc3)n2)cc1	1.87% (active)
COc1cc(NC(=O)c2cc3ccccc3nc2Nc2ccc(F)cc2)cc(OC)c1OC	38% (inactive)
COc1ccc(NC(=O)c2cc3ccccc3nc2Nc2cc(OC)c(OC)c(OC)c2)cc1	76.7% (inactive)
Cc1nn(-c2ccc(Cl)cc2)c(=O)n1CCOc1ccccc1Cl	101% (inactive)
CCn1cc(C(=O)O)c(=O)c2cc(F)c(N3CCN(S(=O)(=O)c4c(C)cc(C)cc4C)CC3)cc21	93.2% (inactive)
O=C(O)C(=Cc1c2ccccc2cc2ccccc12)C(=O)O	113% (inactive)
Cc1cc(Nc2nc(-c3ccncc3)nc3ccccc23)n[nH]1	31.7% (inactive)
COc1ccc(/C=C/C(=O)c2cccc(B(O)O)c2)cc1O	98.3% (inactive)
CC(C)C[C@H](NC(=O)Cn1ccc(NCc2ccccc2)cc1=O)B(O)O	32% (inactive)
COc1cc(CNC(=O)CSc2nc3ccccc3c(=O)n2Cc2cc(OC)c(OC)c(OC)c2)cc(OC)c1OC	105% (inactive)

---

# System: UO-31 renal
# protocolNotes: NCI-60 one-dose screen, 48 h (100 = growth as untreated, 0 = no growth, -100 = all killed)
# measurementSetup: 10 µM unless noted
# Protocol: Growth inhibition of the UO-31 human tumor cell line is measured as a screen for anti-cancer activity. Cells are grown in 96 well plates and exposed to the test compound for 48 hours. Compounds are tested at a single concentration, which is 10^-5 M for most compounds. The reported endpoint is percent growth (GI% or GIPRCNT), where numbers from 0 - 100% represent growth inhibition, and numbers from -100% - 0 represent cell death. For example, a value of 40 represents 60% growth inhibition. […]
About 83,000 compounds went through this panel and 20% of them were active in at least one assay; those are over-represented in the sample as a whole.
attributeMeasured: growth (%)

compound	measuredTarget	attributeMeasured	readoutValue
O=P([O-])(O)OP(=O)([O-])O.[NH-][C@H]1CCCC[C@@H]1[NH-].[OH-].[OH-].[Pt+4]	UO-31 renal	growth	96.6
CC(C)(C)c1ccc(S(=O)(=O)Oc2ccc3c4c(c(=O)oc3c2)CCCCC4)cc1	UO-31 renal	growth	43.4
COc1ccc(C2=NN(c3ccc(S(N)(=O)=O)cc3)C(c3cn(-c4ccccc4)nc3-c3ccc(Cl)cc3)C2)cc1 (centres undefined)	UO-31 renal	growth	60.5
COc1ccc(/C=C/C(=O)c2cc(OC)c(OC)c(OC)c2)cc1OCc1cn(Cc2ccc(F)cc2)nn1	UO-31 renal	growth	30.8
CSc1ccccc1C#C/C=C\C#Cc1ccccc1N1CCCCC1=O	UO-31 renal	growth	34.6
O=C(O)c1ccc(-n2c(=O)c3ccccc3c3ccccc3c2=O)cc1	UO-31 renal	growth	74.8
C/C(=N\NC(=O)CC#N)c1cc2cc(Cl)ccc2o1	UO-31 renal	growth	108
COc1cc(-c2n[nH]nc2-c2ccc3c(c2)OCCO3)cc(OC)c1OC	UO-31 renal	growth	27.1
C=C1C(=O)O[C@H]2[C@H]1CC/C(COC(=O)NCc1cc(OC)c(OC)c(OC)c1)=C\CC[C@@]1(C)O[C@@H]21	UO-31 renal	growth	70.6
c1cc(-c2ccc3c(c2)OCO3)n2nccc2n1	UO-31 renal	growth	90.9
O=S(=O)(NCCCNc1cc(-c2cn(-c3ccccc3)nc2-c2cccc(O)c2)ccn1)c1ccc(C(F)(F)F)cc1	UO-31 renal	growth	24.9
OCc1c(-c2ccccc2)nc2sccn12	UO-31 renal	growth	94.8
CCOC(=O)/C=C\C(=O)NC(N)=O	UO-31 renal	growth	90.8
Cn1c(C(N)=O)cc2c1-c1nc(NC3CCCCC3)ncc1CCC2	UO-31 renal	growth	67.2
Cc1ccc(Oc2nc3ccccc3cc2-c2nnc(Cn3c(COc4ccccc4)nc4ccccc43)o2)cc1	UO-31 renal	growth	8.45
O=C(CCC(=O)OC1CCCC1)OC1CCCC1	UO-31 renal	growth	90.4
CCC(c1cccc(Br)c1)C(C(=O)O)c1ccc(OC)cc1 (centres undefined)	UO-31 renal	growth	90.9
COc1ccc(NC(=O)CSc2nc3ccccc3c(=O)n2-c2ccccc2C(F)(F)F)c(OC)c1OC	UO-31 renal	growth	91.9
COC1=CC(c2ccc[nH]2)=N/C1=C\c1[nH]c(C)c(C(=O)CCC(=O)Oc2ccc3c(c2)CCC2C3CC[C@]3(C)[C@@H](O)CC[C@@H]23)c1C (some centres undefined)	UO-31 renal	growth	-61.9
Cc1ccc(Cn2c(-c3cccs3)nc3ccccc32)cc1	UO-31 renal	growth	59.5
CCCCCCCCCCCCCCCCC(Br)C(=O)O (centres undefined)	UO-31 renal	growth	87.9
Cc1cccc(NC(=O)c2sc3nc4c(cc3c2N)CCC4)c1C	UO-31 renal	growth	43.4
Cc1oc2ncnc(Nc3ccccc3)c2c1C(=O)NCCO	UO-31 renal	growth	87.7
Cc1ccc(S(=O)(=O)OCC(=O)Nc2ccc(C(=O)O)c(O)c2)cc1	UO-31 renal	growth	53
CC/C=C\C/C=C\C[C@H]1C/C=C2/C(=O)C=C[C@H]2C/C=C\CCC(=O)O1	UO-31 renal	growth	-51.7
O=C(/C=C/CN1CCCCC1)Nc1cc2c(Nc3ccc(F)c(Cl)c3F)ncnc2cc1OCCOC(F)F	UO-31 renal	growth	10.4
COc1cc(/C=C2\CCCC3=C2NC(C)=NC3c2cc(OC)c(OC)c(OC)c2)cc(OC)c1OC (centres undefined)	UO-31 renal	growth	51.1
COc1cc(/C=C2\C=C(c3ccc(F)cc3)N(Cc3ccccc3)C2=O)cc(OC)c1OC	UO-31 renal	growth	45.9
Cc1ccc2nc(-c3c(CCCO)noc3N)[nH]c(=O)c2c1	UO-31 renal	growth	47
CC/C=C\C[C@H]1C/C=C2/C(=O)C(Cl)=C[C@@H]2C/C=C\CCCC(=O)O1	UO-31 renal	growth	-93.8
CCCCCCCCCCC/C=C\C[C@H](O)C/C=C1/C(=O)C=C[C@@H]1C/C=C\CCCC(=O)OC	UO-31 renal	growth	-63
COc1ccc(-c2nnc(COc3ccc(NC(=O)Nc4ccc(Cl)c(C(F)(F)F)c4)cc3F)o2)cc1	UO-31 renal	growth	2.2
C=C1C(=O)O[C@H]2[C@H]1CC/C(Cn1cc(-c3ccccc3C(F)(F)F)nn1)=C\CC[C@@]1(C)O[C@@H]21	UO-31 renal	growth	-94.5
O=C(CNC1CCCCC1)Nc1ccc(-c2nc3ccccc3s2)cc1	UO-31 renal	growth	56.5
NS(=O)(=O)c1ccc(CN2C(=O)c3cccc4cccc(c34)C2=O)cc1	UO-31 renal	growth	57.3
COc1cccc(/C=C2\SC(N3CCN(c4ccccn4)CC3)=NC2=O)c1	UO-31 renal	growth	84.5
COc1ccc(/C=C/C(=O)c2cccc(B(O)O)c2)cc1O	UO-31 renal	growth	19.9
CCC(=O)Oc1cc(/C=C/C(=O)O[C@H]2C[C@H]3CN4CCc5c([nH]c6cc(OC)ccc56)[C@@H]4C[C@@H]3[C@@H](C(=O)OC)[C@@H]2OC)ccc1OC	UO-31 renal	growth	40.9
C[N+](C)(C)c1ccc(CC2c3ccccc3-c3ccccc32)cc1	UO-31 renal	growth	90.9
